Target: BRM (Homo sapiens, UniProt P51531)
Construct: made in house; host or cells: High Five insect cells
Sequence (P51531 whole entry): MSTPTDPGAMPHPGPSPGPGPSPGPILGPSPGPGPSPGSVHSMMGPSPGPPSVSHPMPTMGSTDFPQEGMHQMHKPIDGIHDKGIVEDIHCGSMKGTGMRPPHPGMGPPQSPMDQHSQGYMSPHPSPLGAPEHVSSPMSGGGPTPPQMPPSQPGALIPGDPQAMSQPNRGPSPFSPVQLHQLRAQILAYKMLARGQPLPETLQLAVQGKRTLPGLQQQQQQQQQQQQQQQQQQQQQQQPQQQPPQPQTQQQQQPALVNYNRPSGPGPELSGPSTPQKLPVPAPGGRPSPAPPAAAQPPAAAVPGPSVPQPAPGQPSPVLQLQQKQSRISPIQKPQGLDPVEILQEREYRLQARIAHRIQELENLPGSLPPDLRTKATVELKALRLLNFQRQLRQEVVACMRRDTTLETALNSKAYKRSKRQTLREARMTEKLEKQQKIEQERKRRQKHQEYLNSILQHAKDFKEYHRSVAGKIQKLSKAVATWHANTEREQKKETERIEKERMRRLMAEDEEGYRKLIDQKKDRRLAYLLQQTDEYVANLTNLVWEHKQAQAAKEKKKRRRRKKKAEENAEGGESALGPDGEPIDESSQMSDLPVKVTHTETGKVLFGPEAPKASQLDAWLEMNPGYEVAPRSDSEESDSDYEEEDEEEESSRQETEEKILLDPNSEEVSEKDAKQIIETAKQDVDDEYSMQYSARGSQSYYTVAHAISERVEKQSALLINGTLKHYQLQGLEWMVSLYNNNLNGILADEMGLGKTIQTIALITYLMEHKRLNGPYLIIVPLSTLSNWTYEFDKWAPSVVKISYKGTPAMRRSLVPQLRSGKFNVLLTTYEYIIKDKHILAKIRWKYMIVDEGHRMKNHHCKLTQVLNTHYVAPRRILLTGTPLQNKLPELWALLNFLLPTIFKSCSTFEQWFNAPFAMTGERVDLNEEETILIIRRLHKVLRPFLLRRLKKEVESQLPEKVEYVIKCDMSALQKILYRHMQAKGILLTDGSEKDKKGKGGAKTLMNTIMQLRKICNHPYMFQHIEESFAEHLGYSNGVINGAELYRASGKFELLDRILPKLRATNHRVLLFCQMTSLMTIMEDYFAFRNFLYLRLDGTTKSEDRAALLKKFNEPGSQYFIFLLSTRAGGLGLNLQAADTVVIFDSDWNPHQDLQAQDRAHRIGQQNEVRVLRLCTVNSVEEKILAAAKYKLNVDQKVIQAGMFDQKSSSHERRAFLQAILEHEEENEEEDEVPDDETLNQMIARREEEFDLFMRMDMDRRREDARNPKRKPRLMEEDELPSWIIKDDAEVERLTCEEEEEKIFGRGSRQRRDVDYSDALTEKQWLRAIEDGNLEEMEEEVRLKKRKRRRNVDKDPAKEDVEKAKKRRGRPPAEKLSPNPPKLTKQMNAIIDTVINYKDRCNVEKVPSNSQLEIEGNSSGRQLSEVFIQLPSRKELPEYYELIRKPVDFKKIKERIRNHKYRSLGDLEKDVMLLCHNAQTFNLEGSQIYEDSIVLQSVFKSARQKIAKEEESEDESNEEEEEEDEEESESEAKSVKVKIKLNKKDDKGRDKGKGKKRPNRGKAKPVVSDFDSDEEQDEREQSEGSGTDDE
Assay: ATPase catalytic activity of BRM, ADP-Glo in vitro biochemical assay
Conditions: selectivity ratio BRG1 IC50 / BRM IC50
Test Readout: Ratio* (BRG1 IC50 (μM) divided by BRM IC50 (μM))

Example results:
Molecule	Target Of Assay	Reading
Cn1nccc1-c1cccc(-c2ccc3cnc(CNC(=O)c4ccc5c(c4)S(=O)(=O)CCOC5)cc3n2)c1 [Compound 235]	BRM (Homo sapiens, UniProt P51531)	7.32
O=C(NCc1cc2nc(N3CCc4cccnc43)ccc2cn1)c1ccc2c(c1)S(=O)(=O)CCOC2 [Compound 47]	BRM (Homo sapiens, UniProt P51531)	6.12
O=C(NCc1cc2nc(-c3ccccc3OC3CC3)ccc2cn1)c1ccc2c(c1)S(=O)(=O)CCOC2 [Compound 232]	BRM (Homo sapiens, UniProt P51531)	7.00
O=C(NCc1cc2nc(-c3cccc(OC4CC4)n3)ccc2cn1)c1ccc2c(c1)S(=O)(=O)CCOC2 [Compound 241]	BRM (Homo sapiens, UniProt P51531)	17.23
CN[C@H]1CCN(c2cccc(-c3ccc4cnc(CNC(=O)c5ccc6c(c5)S(=O)(=O)CCOC6)cc4n3)n2)CC1(F)F [Compound 67]	BRM (Homo sapiens, UniProt P51531)	6.55
O=C(NCc1cc2nc(-c3cccc(OCC(F)F)c3)ccc2cn1)c1ccc2c(c1)S(=O)(=O)CCOC2 [Compound 103]	BRM (Homo sapiens, UniProt P51531)	10.96

Given the molecule O=C(NCc1cc2nc(-c3cncc(C4CC4)n3)ccc2cn1)c1ccc2c(c1)S(=O)(=O)CCCO2 [Compound 302] , write its reported Ratio* (BRG1 IC50 (μM) divided by BRM IC50 (μM)). 8.50

====

Target: BRM (Homo sapiens, UniProt P51531)
Construct: made in house; host or cells: High Five insect cells
Experiment: ATPase catalytic activity of BRM, ADP-Glo in vitro biochemical assay
Conditions: ADP-Glo ATPase assay, 30 nM BRM, 400 μM ATP
Test Readout: pIC50
Lab note — pIC50 values are minus log10 of concentrations in M.

Example results:
Compound	Test Readout	Reading
C[C@H]1CN(c2cccc(-c3ccc4cnc(CNC(=O)c5ccc(Cl)c(S(C)(=O)=O)c5)cc4n3)n2)C[C@H](C)O1	pIC50	7.48
O=C(NCc1cc2nc(N3CCCc4c(N5CCC5)ccnc43)ccc2cn1)c1ccc2c(c1)S(=O)(=O)CCOC2	pIC50	7.67
C[C@@H]1CN(c2cccc(-c3ccc4cnc(CNC(=O)c5cc(F)c6c(c5)S(=O)(=O)CCOC6)cc4n3)n2)C[C@H](C)O1	pIC50	8.19
O=C(NCc1cc2nc(-c3cccc(N4CCC4)c3)ccc2cn1)c1ccc2c(c1)S(=O)(=O)CCOC2	pIC50	7.44
COc1cccc2c1CCCN2c1ccc2cnc(CNC(=O)c3cnc4c(c3)S(=O)(=O)[C@@H](C)COC4)cc2n1	pIC50	8.03

Given the compound "C[C@@H]1CN(c2cccc(-c3ccc4cnc(CNC(=O)c5ccc(Cl)c(S(C)(=O)=O)c5)cc4n3)n2)C[C@H](C)O1" , write its reported pIC50. 8.02

====

Target: BRM (Homo sapiens, UniProt P51531)
Construct: made in house; host or cells: High Five insect cells
Experiment: ATPase catalytic activity of BRM, ADP-Glo in vitro biochemical assay
Conditions: ADP-Glo ATPase assay, 30 nM BRM, 400 μM ATP
Consider the cut-off 9 nM. If the recorded IC50 is strictly smaller, the label is T; if not, the label is F.

Identify whether the compound "COCCN1CCOc2c(-c3ccc4cnc(CNC(=O)c5ccc(C(F)F)c(S(C)(=O)=O)c5)cc4n3)cccc21" records IC50 below 9 nM. F

Identify whether the compound "Cc1ccc(C(=O)NCc2cc3nc(-c4cccc(N5C[C@@H](C)O[C@@H](C)C5)n4)ccc3cn2)cc1S(C)(=O)=O" records IC50 below 9 nM. T

Identify whether the compound "O=C(NCc1cc2cc(N3CCCc4cc(-c5cn[nH]c5)ccc43)ccc2cn1)c1ccc2c(c1)S(=O)(=O)CCOC2" records IC50 below 9 nM. T

Identify whether the compound "O=C(NCc1cc2cc(N3CCOc4ccc(C5CC5)cc43)ccc2cn1)c1ccc2c(c1)S(=O)(=O)CCOC2" records IC50 below 9 nM. F

Identify whether the compound "O=C(NCc1cc2nc(-c3cccc4c3CCN4C3COC3)ccc2cn1)c1ccc2c(c1)S(=O)(=O)CCOC2" records IC50 below 9 nM. F

Identify whether the compound "O=C(NCc1cc2nc(N3CCCc4ncccc43)ccc2cn1)c1ccc2c(c1)S(=O)(=O)CCOC2" records IC50 below 9 nM. F

====

// reported Ratio* per item
Target: BRM (Homo sapiens, UniProt P51531)
Construct: made in house; host or cells: High Five insect cells
Experiment: ATPase catalytic activity of BRM, ADP-Glo in vitro biochemical assay
Conditions: ratio of BRG1 IC50 to BRM IC50

Smiles Entry	Target Of Assay	Test Readout	Reading
CO[C@H](C)c1cnc2c(c1)CCCN2c1ccc2cnc(CNC(=O)c3ccc4c(c3)S(=O)(=O)CCOC4)cc2n1	BRM (Homo sapiens, UniProt P51531)	Ratio*	21.42
CO[C@@H](C)c1cnc2c(c1)CCCN2c1ccc2cnc(CNC(=O)c3ccc4c(c3)S(=O)(=O)CCOC4)cc2n1	BRM (Homo sapiens, UniProt P51531)	Ratio*	15.74
CO[C@H](c1ccc2c(n1)N(c1ccc3cnc(CNC(=O)c4ccc5c(c4)S(=O)(=O)CCOC5)cc3n1)CCC2)C1CC1	BRM (Homo sapiens, UniProt P51531)	Ratio*	2.86
CO[C@@H]1C[C@H]1N(C)c1cccc(-c2ccc3cnc(CNC(=O)c4ccc5c(c4)S(=O)(=O)CCOC5)cc3n2)n1	BRM (Homo sapiens, UniProt P51531)	Ratio*	11.83
COC[C@H]1C[C@H]1N(C)c1cccc(-c2ccc3cnc(CNC(=O)c4ccc5c(c4)S(=O)(=O)CCOC5)cc3n2)n1	BRM (Homo sapiens, UniProt P51531)	Ratio*	8.53

Moving on to the next molecule.
State measured Ratio* of the molecule "O=C(NCc1cc2nc(-c3cccc4c3OCC[C@H]4OC3COC3)ccc2cn1)c1ccc2c(c1)S(=O)(=O)CCOC2" with BRM (Homo sapiens, UniProt P51531). 8.58

====

Molecular target: BRG-1 (Homo sapiens, UniProt P51532)
Construct: made in house; host or cells: High Five insect cells
Sequence (P51532 whole entry): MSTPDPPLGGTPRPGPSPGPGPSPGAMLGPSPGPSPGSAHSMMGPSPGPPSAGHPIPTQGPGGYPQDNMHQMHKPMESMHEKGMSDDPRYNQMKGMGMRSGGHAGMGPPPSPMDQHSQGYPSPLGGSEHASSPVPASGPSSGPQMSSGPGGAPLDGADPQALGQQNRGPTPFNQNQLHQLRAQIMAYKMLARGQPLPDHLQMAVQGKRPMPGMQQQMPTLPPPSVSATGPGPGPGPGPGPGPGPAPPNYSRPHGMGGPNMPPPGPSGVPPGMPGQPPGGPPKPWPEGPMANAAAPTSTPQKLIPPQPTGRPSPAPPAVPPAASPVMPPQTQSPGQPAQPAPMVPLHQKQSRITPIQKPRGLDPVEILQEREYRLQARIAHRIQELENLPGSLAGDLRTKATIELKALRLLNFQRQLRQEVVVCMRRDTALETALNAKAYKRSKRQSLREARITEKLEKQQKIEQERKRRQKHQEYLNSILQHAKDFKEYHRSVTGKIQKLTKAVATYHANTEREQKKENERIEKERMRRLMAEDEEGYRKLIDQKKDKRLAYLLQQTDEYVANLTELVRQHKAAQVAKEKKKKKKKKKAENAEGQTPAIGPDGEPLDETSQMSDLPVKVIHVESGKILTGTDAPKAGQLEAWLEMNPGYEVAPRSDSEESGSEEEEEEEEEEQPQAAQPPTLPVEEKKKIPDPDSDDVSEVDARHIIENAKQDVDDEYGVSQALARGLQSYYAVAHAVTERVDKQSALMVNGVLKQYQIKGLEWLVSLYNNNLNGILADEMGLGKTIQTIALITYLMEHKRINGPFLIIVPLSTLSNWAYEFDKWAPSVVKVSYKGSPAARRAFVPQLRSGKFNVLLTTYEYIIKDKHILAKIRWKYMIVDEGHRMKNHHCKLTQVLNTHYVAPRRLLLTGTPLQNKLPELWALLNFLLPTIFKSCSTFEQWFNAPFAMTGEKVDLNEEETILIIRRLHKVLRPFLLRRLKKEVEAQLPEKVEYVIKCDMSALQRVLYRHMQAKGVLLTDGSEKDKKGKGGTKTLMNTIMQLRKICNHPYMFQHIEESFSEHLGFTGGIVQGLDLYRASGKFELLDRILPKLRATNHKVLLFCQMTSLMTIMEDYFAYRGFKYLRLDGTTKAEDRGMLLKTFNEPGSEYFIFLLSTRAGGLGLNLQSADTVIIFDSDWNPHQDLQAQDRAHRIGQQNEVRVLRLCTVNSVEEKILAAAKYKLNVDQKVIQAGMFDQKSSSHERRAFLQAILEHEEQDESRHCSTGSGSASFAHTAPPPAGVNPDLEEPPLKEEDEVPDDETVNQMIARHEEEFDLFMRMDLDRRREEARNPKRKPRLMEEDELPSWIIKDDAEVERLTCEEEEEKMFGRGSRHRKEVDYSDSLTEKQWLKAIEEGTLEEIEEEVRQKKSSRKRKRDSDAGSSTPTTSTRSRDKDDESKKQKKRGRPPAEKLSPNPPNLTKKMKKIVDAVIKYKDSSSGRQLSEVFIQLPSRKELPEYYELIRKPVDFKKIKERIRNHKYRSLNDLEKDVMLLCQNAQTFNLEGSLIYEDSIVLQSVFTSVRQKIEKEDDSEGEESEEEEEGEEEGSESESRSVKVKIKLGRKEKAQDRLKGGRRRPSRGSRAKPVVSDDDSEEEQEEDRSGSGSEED
Test: ATPase catalytic activity of BRG-1, ADP-Glo in vitro biochemical assay
Settings: ATPase catalytic activity, ADP-Glo; 30 nM BRG-1, 400 μM ATP; read-out: BRG1 IC50
// reported pIC50 per item
Lab note — pIC50 values are minus log10 of concentrations in M.

Example results:
Compound	pIC50
C[C@@H]1Cc2ccc(-c3ccc4cnc(CNC(=O)c5ccc6c(c5)S(=O)(=O)CCOC6)cc4n3)nc2N(C)C1	6.52
O=C(NCc1cc2nc(-c3cccc(OC4CC4(F)F)n3)ccc2cn1)c1ccc2c(c1)S(=O)(=O)CCOC2 (stereo not drawn)	6.37
CC1CCc2ccc(-c3ccc4cnc(CNC(=O)c5ccc6c(c5)S(=O)(=O)CCOC6)cc4n3)nc2O1 (stereo not drawn)	6.17
O=C(NCc1cc2nc(N3CCCc4cc(C(F)F)cnc43)ccc2cn1)c1ccc2c(c1)S(=O)(=O)CCOC2	6.83
O=C(NCc1cc2nc(-c3cccc(C45COCC4C5)n3)ccc2cn1)c1ccc2c(c1)S(=O)(=O)CCOC2 (stereo not drawn)	6.43

State measured pIC50 of the compound "O=C(NCc1cc2nc(-n3cc(F)c(N4CCOCC4)n3)ccc2cn1)c1ccc2c(c1)S(=O)(=O)CCOC2" with BRG-1 (Homo sapiens, UniProt P51532). 5.75

State measured pIC50 of the compound "C[C@@H]1CN(c2cccc(-c3ccc4cnc(CNC(=O)c5ccc6c(c5)S(=O)(=O)[C@@H](C)COC6)cc4n3)c2F)C[C@H](C)O1" with BRG-1 (Homo sapiens, UniProt P51532). 5.95

State measured pIC50 of the compound CC1Cc2ccc(-c3ccc4cnc(CNC(=O)c5ccc6c(c5)S(=O)(=O)CCOC6)cc4n3)nc2N(C)C1 (stereo not drawn) with BRG-1 (Homo sapiens, UniProt P51532). 6.46

State measured pIC50 of the compound "Cc1cnc2c(c1)N(C)CCN2c1ccc2cnc(CNC(=O)c3ccc4c(c3)S(=O)(=O)CCOC4)cc2n1" with BRG-1 (Homo sapiens, UniProt P51532). 6.90

State measured pIC50 of the compound "COc1nc(C(C)(F)F)ccc1-c1ccc2cnc(CNC(=O)c3ccc4c(c3)S(=O)(=O)[C@@H](C)COC4)cc2n1" with BRG-1 (Homo sapiens, UniProt P51532). 6.64

State measured pIC50 of the compound CC1Cc2ccc(C(=O)NCc3cc4nc(-c5cccc(N6C[C@@H](C)O[C@@H](C)C6)n5)ccc4cn3)cc2S1(=O)=O (stereo partly drawn) with BRG-1 (Homo sapiens, UniProt P51532). 6.64
